List of IC50 values.
PROTOCOL DETAILS: microbe, parasite or virus in culture
RUN PARAMETERS: Mycobacterium tuberculosis, 96 h, read-out: pIC50 (converted)

Examples from the recorded data:
Cc1ccc(S(=O)(=O)NCCc2ccoc2)s1 | 46.2 µM
c1ccc(C2=NN=C(NC3CC3)SC2)cc1 | 140 µM
NCc1nc(C(F)F)no1 | > 501 µM
CCCNC(=O)c1cc(Br)c[nH]1 | > 501 µM

Exercise: If you can, please state the reported IC50 value of `Cc1ccc(OCCSCCn2nc3ccccn3c2=O)cc1` .
Key: > 50.1 µM

Exercise: Cool, now `CCSc1nc2ccccc2c(=O)n1OCC(=O)OC`
Key: > 50.1 µM

###

Tested on: Plasmodium falciparum
PROTOCOL DETAILS: Plasmodium falciparum sporozoite viability assay
Type: functional, organism-based
QUANTITY KIND: pIC50
// keep it numeric: no unit symbol after the value

Examples from the recorded data:
O=C(NCCNc1cc(N2CCCC2)cnn1)Nc1ccccc1F | 6.092
Cc1nnc(CN(C)Cc2nc3c(s2)CCCC3)o1 | 5.52
c1cncc(OCc2nc(C3CC3)nn2-c2ccc3c(c2)OCCO3)c1 | 5.428

Exercise: Form field - read-out: pIC50; system: Plasmodium falciparum; submitted item: CNC(=O)CCC(=O)N1CCOC(c2ccc3cc(OC)ccc3c2)C1 (stereo unspecified)
Key: 7.215

Exercise: Cool, now Cc1cc(C)n(CC2CN(Cc3nc4ccccc4s3)CCO2)n1 (stereo unspecified)
Key: 6.064

Exercise: Cool, now COc1cccc(-c2noc(C3CCN(Cc4cn(C)nc4C)C3)n2)c1 (stereo unspecified)
Key: 5.995

###

List of pIC50 values.
System: Leishmania donovani
PROTOCOL DETAILS: Leishmania intramacrophage assay
Type: functional, organism-based
RUN PARAMETERS: Leishmania donovani
pIC50: −log10 of the molar value.

O=C(NC1COC2(CCN(Cc3ccccn3)CC2)C1)c1ccccn1 (stereo not drawn) | < 4.30
O=C(c1c[nH]cn1)N1CCC(F)(F)C2(CCN(c3ncccn3)C2)C1 (stereo not drawn) | < 4.30

Next compound, pIC50 to be filled in.
Exercise: If you can, please state the reported pIC50 value of `Cc1sc2nc(CCN)nc(N3CCS(=O)(=O)CC3)c2c1C` .
Key: < 4.30

###

PROTOCOL DETAILS: microbe, parasite or virus in culture
RUN PARAMETERS: Mycobacterium tuberculosis, 72 h, read-out: pIC50 (converted)
# note: exactly 200 µM is not below, so it is NO; use YES for IC50 strictly under it

Below are worked cases with known answers.
O=c1[nH]cnc2cccc(O)c12 | NO
Fc1cccc(-c2cccc(N3CCC(NC4CCCOC4)CC3)c2)c1 (stereo not drawn) | YES
CN1CCOC(C(=O)Nc2ncc(Cl)s2)C1 (stereo not drawn) | NO
CC(=O)Nc1ccc(N2C(=O)C=CC2=O)cc1 | YES
CCOc1ccc(CNS(=O)(=O)N(C)C)cc1C | NO

Exercise: Does this molecule meet the criterion IC50 < 200 µM? `Cc1cc2[nH]c(O)nc2cc1NCc1ccc(F)cc1`
Key: YES

###

List of log10 IC50 values.
PROTOCOL DETAILS: microbe, parasite or virus in culture
RUN PARAMETERS: Mycobacterium tuberculosis, 72 h, read-out: pIC50 (converted)
Values below are the log10 of the recorded IC50, with µM as the unit.

CO[C@H]1CNCC1NC(=O)c1cc2ccccc2n1C (stereo not given in full) | 2.56
CCNC(=O)NCC(C)Oc1cccc(OC)c1 (stereo not given) | 2.40
OCC1CCCN1c1cc(N2CCC(OC3CCCC3)CC2)ncn1 (stereo not given) | 1.19

Exercise: If you can, please state the reported log10 IC50 value of CC(NC(=O)CSc1nnnn1C1CC1)c1cccs1 (stereo not given) .
Key: 2.64

Exercise: Cool, now `O=S(=O)(NCCNc1ccc(-n2cccc2)nn1)c1cccs1`
Key: 1.15

Exercise: Cool, now `CN(C)c1nc2c(c(N3CCc4ccccc4C3)n1)CCNC2`
Key: 1.50

Exercise: Cool, now `CN(C)CCN(C)c1ccc(-c2nc(COc3ccccc3)no2)cn1`
Key: 1.68

Exercise: Cool, now `CC(C)CCNC(=O)Nc1ccc(-n2cccn2)nc1`
Key: 2.01

Exercise: Cool, now `O=C(CNCC1CC1)Nc1ccccc1`
Key: 2.23

Exercise: Cool, now `CC1=CC(=O)N(Cc2ccccc2)C1=O`
Key: 1.70

###

PROTOCOL DETAILS: microbe, parasite or virus in culture
RUN PARAMETERS: Mycobacterium tuberculosis, 72 h, read-out: pIC50 (converted)
QUANTITY KIND: log10(IC50) (log10 of the value in µM)
Values below are the log10 of the recorded IC50, with µM as the unit.

Examples from the recorded data:
COc1cc(C)c(S(=O)(=O)N2C[C@@H](O)[C@@H](O)C2)cc1C | 2.36
N[C@@H]1CC[C@@H](NC(=O)c2cc3sccc3[nH]2)C1 | 2.22
Cc1cnn(C2CN(c3ccccc3S(=O)(=O)C(F)(F)F)C2)c1 | 1.01
CO[C@H]1CCN(c2nnc(C)s2)C[C@@H]1Cc1ccccc1.O=C(O)C(F)(F)F | 1.61

Exercise: If you can, please state the reported log10(IC50) value of `CC(=O)N1CCc2onc(-c3ccc(F)c(F)c3)c2C1` .
Key: 2.59

Exercise: Cool, now `Cc1nc(C(=O)NCCN2CCCC2)c(C)s1`
Key: 2.49

Exercise: Cool, now `OCCCNc1cccc(Cl)c1-n1cccn1`
Key: 2.26

###

PROTOCOL DETAILS: microbe, parasite or virus in culture
RUN PARAMETERS: Mycobacterium tuberculosis, 96 h, read-out: pIC50 (converted)
QUANTITY KIND: IC50

Examples from the recorded data:
COc1cccc(N2CCNCC2C)c1 (centres undefined) | > 501 µM
NS(=O)(=O)NCC1CCN(c2cccc(Br)c2)C1 (centres undefined) | 230 µM
C=C(C)COc1ccc(C(=O)NCC[C@@H](C)CO)cc1 | 283 µM
Cc1csc(NC(=O)NC(CO)CC(C)C)n1 (centres undefined) | 289 µM
CN(C)c1ncnc2c1CCN(C(=O)CN1CCCCC1)C2 | > 50.1 µM
CN1N=C(C(=O)NCc2ccc(Cl)cc2)CCC1=O | 38.8 µM
CCc1ccccc1OCCN(C)C(=O)CN1CCCC1 | > 50.1 µM
CC(N)c1nc(-c2ccc3c(c2)OCO3)c[nH]1 (centres undefined) | > 501 µM

Next molecule, IC50 to be filled in.
Exercise: If you can, please state the reported IC50 value of `COc1ccc(OCCSCC(=O)NCCC#N)cc1` .
Key: 288 µM

###

PROTOCOL DETAILS: microbe, parasite or virus in culture
RUN PARAMETERS: Mycobacterium tuberculosis, 96 h, read-out: pIC50 (converted)
QUANTITY KIND: IC50

Examples from the recorded data:
O=C(NCC(CO)Cc1ccc(Cl)cc1)c1ccncc1Cl (configuration not stated) | > 50.1 µM
O=C(Cn1cccn1)N1CCC(Cn2cc(-c3ccsc3)nn2)CC1 | > 50.1 µM
CN(C)S(=O)(=O)NC1CCCOc2c(Cl)cccc21 (configuration not stated) | > 501 µM
O=C(Nc1cccnc1)[C@H]1COC[C@H]2CN(C3CCCC3)C[C@H]21 | > 50.1 µM
NS(=O)(=O)C1CCN(Cc2ccc(Br)c(F)c2)C1 (configuration not stated) | > 501 µM

Exercise: If you can, please state the reported IC50 value of `COc1ccc(C(=O)NCCSc2cnn[nH]2)cc1F` .
Key: > 501 µM

Exercise: Cool, now `O=C(c1ccnn1COc1ccc(Cl)cc1)N1CCCC1`
Key: > 50.1 µM

###

List of IC50 values.
PROTOCOL DETAILS: microbe, parasite or virus in culture
RUN PARAMETERS: Mycobacterium tuberculosis, 96 h, read-out: pIC50 (converted)

CCC(C)c1cc(C(=O)Nc2ncccc2O)on1 (stereo unspecified) | 268 µM
CC(C)c1ncc(C(=O)N2CCS(=O)(=O)CC2)cn1 | > 501 µM
CS(=O)(=O)NCC1CCCN(c2ncc(Cl)cc2F)C1 (stereo unspecified) | > 501 µM

Exercise: If you can, please state the reported IC50 value of `COCCN(C)C(=O)Nc1cccc(Cl)c1` .
Key: 282 µM

Exercise: Cool, now CC(C)N1CC2(CCCN(Cc3noc(C4CCCC4)n3)C2)CCC1=O (stereo unspecified)
Key: > 50.1 µM

Exercise: Cool, now `Fc1cccc(N2C[C@H]3CCN(c4cccnc4)C[C@H]3C2)c1`
Key: > 50.1 µM

Exercise: Cool, now `NCc1ccc(Cl)cn1`
Key: 249 µM

These entries and their values trace back to ChEMBL document CHEMBL3988442.
